- System: Saccharomyces cerevisiae
- RUN_DESCRIPTION: protein stability index of tFT-peptide fusion (C-terminal peptide) (PSI (0-1 scale)); higher = more stable (slower turnover)
- ASSAY_CONTEXT: genetic background: wild type; temperature: 30 C
Classification field: enter Criterion met for protein stability index values not below 0.7, Criterion not met for values below it.

Consider the following illustrative entries.
>  <BIOPOLYMER_SEQUENCE>
AADRDNKKDEST [XRN1 C-terminal 12 aa]

>  <ANSWER_LABEL>
Criterion not met

$$$$
>  <BIOPOLYMER_SEQUENCE>
ENFSSALQSPIF [YDL152W C-terminal 12 aa]

>  <ANSWER_LABEL>
Criterion met

$$$$
>  <BIOPOLYMER_SEQUENCE>
WYEDEDSGDDDM [DML1 C-terminal 12 aa]

>  <ANSWER_LABEL>
Criterion not met

$$$$
>  <BIOPOLYMER_SEQUENCE>
LEDQDGSLYLNY [PFU1 C-terminal 12 aa]

>  <ANSWER_LABEL>
Criterion not met

$$$$
>  <BIOPOLYMER_SEQUENCE>
TDDKEKLLKTLK [ACC1 C-terminal 12 aa]

>  <ANSWER_LABEL>
Criterion met

$$$$
>  <BIOPOLYMER_SEQUENCE>
APPKLNNSSESE [STE23 C-terminal 12 aa]

>  <ANSWER_LABEL>
Criterion not met

$$$$
>  <BIOPOLYMER_SEQUENCE>
QTLDSEYNTILQ [GAT2 C-terminal 12 aa]

>  <ANSWER_LABEL>
Criterion met

$$$$
>  <BIOPOLYMER_SEQUENCE>
NTESSDKGAKIQ [SIN3 C-terminal 12 aa]

>  <ANSWER_LABEL>
Criterion not met

$$$$

Next up:
Quick check, protein stability index >= 0.7? GETDSKIKYKYR [SND2 C-terminal 12 aa] Criterion not met
